Test summary: PSAC antagonists in infected red cells, primary screen, cell-based, P. falciparum Indochina, OD700, 1 h (AID 1154)
Test conditions: P. falciparum Indochina infected RBC osmotic lysis, higher = more signal, called active from +8 up or from −8 down
For each record, write down the corresponding z-score.
// no unit, no text: just the number

## Input Can you share its z-score? I mean this compound: CC(C)C[C@H]1NC(=O)[C@@]23C(=O)N[C@@H](Cc4ccccc4)C2[C@H](C)[C@@]2(C)O[C@H]2C3/C=C/C/C=C\CNC(=O)[C@@H]2CCCN2C1=O (stereo not given in full)
## Output 0.0869

## Input // next record `COCCOC(=O)N1C(=O)[C@@]2(c3cc(C#CC4=CCCCC4)ccc31)[C@H](c1ccccc1OCCO)N1[C@H](c3ccccc3)[C@H](c3ccccc3)OC(=O)[C@H]1[C@@H]2C(N)=O`
## Output 2.66

## Input // next record `COCC1=C([C@H](O)CCc2ccccc2)[C@H](CO)n2c(=O)n(-c3ccccc3)c(=O)n2C1`
## Output 2.67

## Input // next record `CC(C)CNC(=O)[C@@H]1c2ccccc2C(=O)N(CC23CC4CC(CC(C4)C2)C3)[C@H]1c1ccc(CO)cc1`
## Output 0.317

## Input // next record `C=C(CCCC)/C(=C/C[C@H](OC(C)=O)c1cccc(OCCO)c1)c1cc(C(=O)OC)ccc1OC`
## Output 21

## Input // next record `COC(=O)[C@]1(CO)N=C(c2ccc(OCCCO)cc2)O[C@@H]1c1ccccc1CN=[N+]=[N-]`
## Output 7.47

## Input // next record `CCOC(=O)C1=C[C@@H](C(C)(C)C)N(S(=O)(=O)c2ccc(C)cc2)[C@H]1c1ccccc1Cl`
## Output -0.747

## Input // next record `CC(C)C[C@@H]1NC(=O)[C@@H]2C[C@H](C(=O)NCCCC[N+](C)(C)C)[C@H](c3ccc(O)cc3)N2C1=O`
## Output 1.32

## Input // next record `COC(=O)[C@@]1(Cc2ccc(OC)cc2)[C@@H]2[C@@H](CC(=O)[C@H]2CC(=O)C(=O)N2CCCC2)CN1C(=O)c1ccccc1`
## Output 4.55

## Input // next record `CCCC[C@@H]1C[C@H]1[C@@H](NC(=O)c1ccc(C(F)(F)F)cc1)c1ccc(C(=O)OC)cc1`
## Output 8.27

## Input // next record `O=C1N(CCS(=O)(=O)c2ccccc2)c2ccccc2[C@@H]2OC(c3ccc(OCCCO)cc3)=N[C@]12CCS(=O)(=O)c1ccccc1`
## Output 28.2

## Input // next record `COC(=O)[C@@]1(Cc2ccccc2CN=[N+]=[N-])COC(c2ccc(OCCCO)cc2)=N1`
## Output 23.8

## Input // next record `NC(=O)[C@@]1(CCS(=O)(=O)c2ccccc2)COC(c2ccc(OCCCO)cc2)=N1`
## Output 22.1

## Input // next record `COc1ccc(CC[C@H](O)c2cccc(OCC(=O)OC(C)(C)C)c2)cc1`
## Output 22.8

## Input // next record `COc1ccc([Si](C)(C)[C@H]2[C@H](CCO)O[C@@]3(C(=O)N(Cc4ccccc4)c4ccc(N(C=O)c5ccccc5)cc43)[C@@H]2C)cc1`
## Output 5.68

## Input // next record `COCC(=C=CC[C@@H](O)c1cccc(OCCO)c1)C[C@@H](O)COCc1ccccc1`
## Output 8.33

## Input // next record O=C1C2C=CC(C(O)c3ccc([N+](=O)[O-])cc3)N(Nc3ccccc3)C2C(=O)N1c1ccccc1 (stereo not given)
## Output 3.99

## Input // next record `Cc1c(NC(=O)/C(C#N)=C/c2ccc(Cl)cc2)c(=O)n(-c2ccccc2)n1C`
## Output 6.41

## Input // next record `C=CCNC(=O)[C@H]1[C@@H]2C(=O)O[C@@H](c3ccccc3)[C@@H](c3ccccc3)N2[C@@H](c2ccccc2OCCO)[C@]12C(=O)N(C(=O)OCCOC)c1ccccc12`
## Output 2.31

## Input // next record `C=CC[C@@]1(C(=O)N(C)C)N=C(c2ccc(OCCCO)cc2)O[C@@H]1c1ccccc1`
## Output 24

## Input // next record `[N-]=[N+]=NCc1ccccc1C[C@]1(C(=O)O)COC(c2ccc(OCCCO)cc2)=N1`
## Output 5.11

## Input // next record O=C1C2C=CC(C(O)C(c3ccccc3)c3ccccc3)N(Nc3ccccc3)C2C(=O)N1c1ccccc1 (stereo not given)
## Output 1.85

## Input // next record `C=CCN1C(=O)[C@]2(O[C@H](CCn3cc([C@H](O)c4ccccc4)nn3)[C@@H]([Si](C)(C)c3ccc(OC)cc3)[C@@H]2C)c2cc(N3C(=O)c4cccc5cccc3c45)ccc21`
## Output 5.26

## Input // next record `COC(=O)[C@@]1(CCS(=O)(=O)c2ccccc2)N=C(c2ccc(OCCCO)cc2)O[C@H]1c1ccccc1N=[N+]=[N-]`
## Output 26.9

## Input // next record `COC(=O)[C@@]1(Cc2ccccc2)[C@@H]2[C@@H](CC(=O)[C@H]2CC(=O)C(=O)N(C)C)CN1C(=O)c1ccccc1`
## Output 2.19
